experimentalTarget: T1, human VTCN1 protein (Homo sapiens, UniProt Q7Z7D3)
T1 construct: His
T1 sequence (Q7Z7D3 25-282): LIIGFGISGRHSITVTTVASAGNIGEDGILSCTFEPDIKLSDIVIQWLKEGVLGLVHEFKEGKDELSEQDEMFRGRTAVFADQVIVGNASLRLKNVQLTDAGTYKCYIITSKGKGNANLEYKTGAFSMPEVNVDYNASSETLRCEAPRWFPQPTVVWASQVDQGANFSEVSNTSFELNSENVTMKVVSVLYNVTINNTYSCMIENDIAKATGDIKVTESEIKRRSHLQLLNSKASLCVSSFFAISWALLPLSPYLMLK
assayComment: Affinity to recombinant VTCN1-his by OCTET Red (Protein A biosensors)
Format: binding
testConditions: Table 9
property: k(on)
Keep the answer to the number alone.

k(on) for hu6D9_57A4: humanized 6D9 antibody; VH SEQ ID NO: 228, VL SEQ ID NO: 224 (antibody, V domains shown) VH: QVQLVESGPGVVQPGRSLRLSCAVSGFSLTSYGVQWVRQAPGKGLEWLAVIWSSGSTDYNAAFLSRLTISKDNSKSTVYFQMNSLRAEDTAVYYCARDVTTIVEGFAHWGQGTLVTVSS VL: DIQMTQSPSSLSASVGDRVTITCKASEKVGTYVSWYQQKPGKAPKLLIYGASNRYTGVPSRFSGSGSGTDFTLTISSLQPEDFATYYCGQTYSYPFTFGQGTKLEIK ?
6.21E+04
